target: EGFR ins SVD (insertion of SVD between D770 and N771) (Homo sapiens, UniProt P00533, INS767SVD); assay: Exon 20-Mutant-EGFR(D770_N771insSVD) kinase assay (TR-FRET); type: biochemical; details: Table 9; read-out: mutEGFR (D770_N771insSVD) kinase assay IC50
Sequence (P00533 with tags, fused parts or gaps INS767SVD limits assumed): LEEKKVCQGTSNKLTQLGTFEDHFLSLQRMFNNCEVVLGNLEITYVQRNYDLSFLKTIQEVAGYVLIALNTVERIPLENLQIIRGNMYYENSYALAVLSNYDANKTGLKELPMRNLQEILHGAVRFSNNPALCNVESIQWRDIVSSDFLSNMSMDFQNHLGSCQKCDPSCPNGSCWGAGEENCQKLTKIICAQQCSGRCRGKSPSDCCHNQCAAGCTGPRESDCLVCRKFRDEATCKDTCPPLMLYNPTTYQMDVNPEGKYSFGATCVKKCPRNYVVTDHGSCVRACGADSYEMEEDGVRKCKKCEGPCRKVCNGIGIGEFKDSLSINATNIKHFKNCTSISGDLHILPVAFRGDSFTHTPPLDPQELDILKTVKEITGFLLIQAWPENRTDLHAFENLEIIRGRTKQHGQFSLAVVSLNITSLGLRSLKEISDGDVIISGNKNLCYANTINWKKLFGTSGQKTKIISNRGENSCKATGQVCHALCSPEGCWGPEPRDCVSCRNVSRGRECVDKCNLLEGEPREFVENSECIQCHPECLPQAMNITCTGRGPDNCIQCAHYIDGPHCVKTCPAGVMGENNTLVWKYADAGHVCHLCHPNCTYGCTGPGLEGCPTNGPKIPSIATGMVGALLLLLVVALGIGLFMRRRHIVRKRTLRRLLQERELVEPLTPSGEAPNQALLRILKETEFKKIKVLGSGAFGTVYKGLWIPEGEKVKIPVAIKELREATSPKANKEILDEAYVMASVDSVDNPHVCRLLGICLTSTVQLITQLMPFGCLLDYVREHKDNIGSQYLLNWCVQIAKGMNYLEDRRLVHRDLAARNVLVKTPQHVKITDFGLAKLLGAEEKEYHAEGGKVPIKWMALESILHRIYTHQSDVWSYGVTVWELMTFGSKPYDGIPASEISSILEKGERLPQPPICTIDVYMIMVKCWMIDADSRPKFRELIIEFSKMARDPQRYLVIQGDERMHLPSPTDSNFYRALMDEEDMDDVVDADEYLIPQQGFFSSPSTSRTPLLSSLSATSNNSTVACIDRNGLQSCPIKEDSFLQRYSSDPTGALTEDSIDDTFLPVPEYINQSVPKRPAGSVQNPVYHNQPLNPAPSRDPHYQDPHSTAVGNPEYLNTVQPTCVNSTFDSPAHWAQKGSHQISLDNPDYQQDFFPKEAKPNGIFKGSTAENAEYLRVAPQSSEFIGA
IC50 values for the molecules below.
Number in nM, nothing else.

Reference set (5 entries):
cpdsmiles=Cc1c(F)cc(F)cc1Nc1c(-c2ccncc2OCCN(C)C)[nH]c2c1C(=O)NCC2 readoutnumber=0.465
cpdsmiles=Cc1c(Cl)cccc1Nc1c(-c2ccncc2OCC(C)(C)N(C)C)[nH]c2c1C(=O)NCC2 readoutnumber=0.695
cpdsmiles=COC(C)(C)COc1cnccc1-c1[nH]c2c(c1Nc1cc(F)ccc1C)C(=O)NCC2 readoutnumber=0.319
cpdsmiles=Cc1c(F)cc(F)cc1Nc1c(-c2ccncc2OCC(C)(C)N(C)C)[nH]c2c1C(=O)NCC2 readoutnumber=0.663
cpdsmiles=COC(C)(C)COc1cnccc1-c1[nH]c2c(c1Nc1cccc(Cl)c1Cl)C(=O)NCC2 readoutnumber=0.0946

Incoming: Fill in reported IC50 for this entry: COCCOc1cnccc1-c1[nH]c2c(c1Nc1ccccc1C(F)(F)F)C(=O)NCC2
Outgoing: 0.169

* * *

Listing of entries alongside the reported IC50.
biological target: EGFR ins SVD (insertion of SVD between D770 and N771) (Homo sapiens, UniProt P00533, INS767SVD); experiment: Exon 20-Mutant-EGFR(D770_N771insSVD) kinase assay (TR-FRET); format: biochemical; conditions: Table 9; read-out: mutEGFR (D770_N771insSVD) kinase assay IC50
The reply should be a number in nM, with the unit left off.

Here's what some known entries look like.
molecule=COc1c(Cl)cccc1Nc1c(-c2ccncc2OCCN(C)C)[nH]c2c1C(=O)NCC2 resultunit=nM readoutnumber=0.912
molecule=COC(C)(C)COc1cnccc1-c1[nH]c2c(c1Nc1cccc(F)c1OCC(F)F)C(=O)NCC2 resultunit=nM readoutnumber=2.14
molecule=COC(C)(C)COc1cnccc1-c1[nH]c2c(c1Nc1cccc(F)c1CC(F)F)C(=O)NCC2 resultunit=nM readoutnumber=0.191
molecule="COc1c(Cl)cccc1Nc1c(-c2ccncc2OCC2CCCCO2)[nH]c2c1C(=O)NCC2 (stereo not shown)" resultunit=nM readoutnumber=0.115
molecule=COC(C)(C)COc1cnccc1-c1[nH]c2c(c1Nc1cccc(F)c1C#N)C(=O)NCC2 resultunit=nM readoutnumber=0.228
molecule="O=C1NCCc2[nH]c(-c3ccncc3OCC3CCCCO3)c(Nc3cccc(Cl)c3Cl)c21 (stereo not shown)" resultunit=nM readoutnumber=0.106
molecule=CCc1c(F)cccc1Nc1c(-c2ccncc2OCC(C)(C)OC)[nH]c2c1C(=O)NCC2 resultunit=nM readoutnumber=0.185
molecule=COc1c(F)cccc1Nc1c(-c2ccncc2OCC(C)(C)N(C)C)[nH]c2c1C(=O)NCC2 resultunit=nM readoutnumber=0.865
molecule=COCCOc1cnccc1-c1[nH]c2c(c1Nc1ccccc1OC(F)F)C(=O)NCC2 resultunit=nM readoutnumber=0.292
molecule=COc1c(Cl)cccc1Nc1c(-c2ccncc2OCCOC(C)(C)C)[nH]c2c1C(=O)NCC2 resultunit=nM readoutnumber=0.204

Incoming: Report IC50 for COc1c(F)cccc1Nc1c(-c2ccncc2OC(C)Cc2ccccc2)[nH]c2c1C(=O)NCC2 (stereo not shown)
Outgoing: 0.277

Incoming: Give the reported value of IC50 for this record: COc1c(F)cccc1Nc1c(-c2ccncc2OCC(C)(C)OC)[nH]c2c1C(=O)NCC2
Outgoing: 0.113

Incoming: Determine from records and report IC50 for COc1c(F)cccc1Nc1c(-c2ccncc2OCC2CCCO2)[nH]c2c1C(=O)NCC2 (single isomer, unassigned; enantiomer 1) [Example 88]
Outgoing: 0.0888

Incoming: # return recorded IC50 for input CCOc1c(F)cccc1Nc1c(-c2ccncc2OCC(C)(C)OC)[nH]c2c1C(=O)NCC2
Outgoing: 0.415

Incoming: Identify the reported IC50 for the following entry. O=C1NCCc2[nH]c(-c3ccncc3OCc3ccccc3)c(Nc3cccc(F)c3)c21
Outgoing: 0.28
